biological target: μ receptor (Rattus norvegicus)
Sequence (P33535 whole entry): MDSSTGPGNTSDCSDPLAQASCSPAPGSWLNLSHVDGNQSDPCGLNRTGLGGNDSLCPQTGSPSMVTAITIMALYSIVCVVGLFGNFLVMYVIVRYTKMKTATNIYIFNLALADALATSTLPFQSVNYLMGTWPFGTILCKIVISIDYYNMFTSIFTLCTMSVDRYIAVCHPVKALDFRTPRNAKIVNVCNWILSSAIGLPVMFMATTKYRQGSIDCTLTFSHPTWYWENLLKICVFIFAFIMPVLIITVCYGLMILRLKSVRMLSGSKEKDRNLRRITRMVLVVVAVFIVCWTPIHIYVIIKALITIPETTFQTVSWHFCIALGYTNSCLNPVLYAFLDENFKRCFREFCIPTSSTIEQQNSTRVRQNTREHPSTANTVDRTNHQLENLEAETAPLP
measurement-name: IC50 (nM)

# count of solved cases: 5
Cc1cc(N)c2cc(NC(=O)c3ccccc3COc3ccc(C(F)(F)F)cc3)ccc2n1.Cl [Example 18, hydrochloride]: 1040
CCCc1ccc(OCc2ccccc2C(=O)Nc2ccc3nc(C)cc(N)c3c2)cc1.Cl [Example 34, hydrochloride]: 2370
CC(=O)c1ccc(OCc2ccccc2C(=O)Nc2ccc3nc(C)cc(N)c3c2)cc1.Cl [Example 12, hydrochloride]: 670
Cc1cc(N)c2cc(NC(=O)c3ccccc3COc3ccc(Cl)cc3)ccc2n1.Cl [Example 11, hydrochloride]: 1120
Cc1cc(N)c2cc(NC(=O)c3ccccc3COc3ccc(Br)cc3)ccc2n1.Cl [Example 33, hydrochloride]: 1440

(P) Cc1ccc(OCc2ccccc2C(=O)Nc2ccc3nc(C)cc(N)c3c2)c(Cl)c1.Cl [Example 43, hydrochloride]
(Q) Cc1cc(N)c2cc(NC(=O)c3ccccc3COc3ccc(C(C)(C)C)cc3)ccc2n1.Cl [Example 29, hydrochloride]
(R) COc1cccc(OCc2ccccc2C(=O)Nc2ccc3nc(C)cc(N)c3c2)c1OC.Cl [Example 8, hydrochloride]
*Q* Highest IC50 first, then in falling order down to the smallest. Please express your ranking as an ordered list of the labels.
*A* P, Q, R
